tested on: Bacillus subtilis; assay: cleaved RNA product abundance (RNA/gDNA barcode ratio) relative to median wild-type variant (ratio to wild type); higher = more accumulation of the downstream cleavage product; details: experiment (reporter, strain, medium): exp 2b: truncated aprE reporter, strain BJT200; cleavage site: cggR-gapA (positions -7 to +36 mutated)
cleaved RNA product abundance by entry:
Just the number, please, no unit attached.

{"recordSequence": "ACAGACGAAGGAGCCGCAAAGAATTTATTAAGGGATGAATAATCCATCAATATAAATATCTCTCACTTATTTAAA", "parameter": "cleaved RNA product abundance", "value": 0.204}
{"recordSequence": "ACAGACGAAGGAGCCGCAAAGAAGTTCTTAAGGGATGAATAATCCCTCAATATAAAAATCTCTCACTTATTTAAA", "parameter": "cleaved RNA product abundance", "value": 0.181}
{"recordSequence": "ACAGACGAAGGAGCCGCAAAGAAGTTAATAAGGGATGAATAATTCCTCAATATAAATATCTCTCACTTATTTAAA", "parameter": "cleaved RNA product abundance", "value": 0.178}

Item ACAGACGAAGGAGCCGCAAAGAATTTATTAAGGGATGAATAAGCCCTCAATATAAATATCTCTCACTTATTTAAA was tested on Bacillus subtilis; the reported cleaved RNA product abundance is 0.502

Observed cleaved RNA product abundance on Bacillus subtilis, entry ACAGACGAAGGAGCCGCAAAAAAGTTATTAAGGGATGAATAATCCGTCAATATAAATATCTCTCACTTATTTAAA , equals 0.168

Tested on Bacillus subtilis, the item ACAGACGAAGGAGCCGCAAAGAAGTTATTAAGGGATGAAAAATCCCTCATTATAAATATCTCTCACTTATTTAAA showed cleaved RNA product abundance equal to 0.226

Query ACAGACGAAGGAGCCGCAAAGAAGTTATTAAGTGATGAATAATCCCTCAATTTAAATATCTCTCACTTATTTAAA on Bacillus subtilis; cleaved RNA product abundance returned: 0.0957

Reference source: the supplement of paper PMC11780869
